Data credit: patent US10626112B2

TARGET OR TEST SYSTEM: human TRPA1 (Homo sapiens (Human), UniProt O75762)
Sequence (O75762 whole entry): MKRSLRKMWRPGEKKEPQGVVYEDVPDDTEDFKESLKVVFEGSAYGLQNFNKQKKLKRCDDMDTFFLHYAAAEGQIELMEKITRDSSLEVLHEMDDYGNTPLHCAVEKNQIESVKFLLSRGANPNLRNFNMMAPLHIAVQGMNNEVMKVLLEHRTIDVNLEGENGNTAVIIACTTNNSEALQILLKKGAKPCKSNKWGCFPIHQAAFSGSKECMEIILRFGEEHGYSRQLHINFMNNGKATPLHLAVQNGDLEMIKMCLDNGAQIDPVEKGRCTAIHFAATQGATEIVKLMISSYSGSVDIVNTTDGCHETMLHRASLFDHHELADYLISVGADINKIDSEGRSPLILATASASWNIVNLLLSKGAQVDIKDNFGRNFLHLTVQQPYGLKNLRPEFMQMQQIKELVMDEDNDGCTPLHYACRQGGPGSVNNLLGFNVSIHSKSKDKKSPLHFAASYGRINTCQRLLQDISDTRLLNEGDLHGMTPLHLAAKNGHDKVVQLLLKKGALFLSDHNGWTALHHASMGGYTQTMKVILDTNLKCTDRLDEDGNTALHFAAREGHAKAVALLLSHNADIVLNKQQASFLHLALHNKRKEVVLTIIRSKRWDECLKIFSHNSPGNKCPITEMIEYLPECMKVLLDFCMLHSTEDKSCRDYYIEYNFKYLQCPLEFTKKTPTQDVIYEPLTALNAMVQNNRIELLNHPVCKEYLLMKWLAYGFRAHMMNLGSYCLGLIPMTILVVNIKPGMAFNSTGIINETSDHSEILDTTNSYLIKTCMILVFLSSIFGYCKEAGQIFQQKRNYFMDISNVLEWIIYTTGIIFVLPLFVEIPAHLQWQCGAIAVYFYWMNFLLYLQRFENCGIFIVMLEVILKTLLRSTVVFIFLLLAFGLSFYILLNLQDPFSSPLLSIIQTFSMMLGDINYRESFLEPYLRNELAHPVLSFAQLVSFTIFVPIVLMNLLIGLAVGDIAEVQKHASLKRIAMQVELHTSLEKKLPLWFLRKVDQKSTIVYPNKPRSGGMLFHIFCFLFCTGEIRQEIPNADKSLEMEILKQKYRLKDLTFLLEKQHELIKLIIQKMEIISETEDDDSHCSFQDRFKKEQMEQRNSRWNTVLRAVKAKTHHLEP
ASSAY OVERVIEW: Measurement of TRPA1 antagonist activity (1): intracellular calcium increase
Format: cell-based
PARTICULARS: 293T cells transfected with human TRPA1 expression plasmid; allylisothiocyanate 20 μM stimulation; intracellular calcium fluorescence; read-out: hTRPA1 IC50
OUTCOME MEASURE: IC50 (nM)

Examples with their reported IC50 follow.
Problem: Find IC50 for O=C(NCc1cc(-c2ccc(OC(F)(F)F)cc2)ncn1)[C@@H]1CCCN1S(=O)(=O)c1cc2cnccc2o1 [Example 306] on human TRPA1 (Homo sapiens (Human), UniProt O75762) and write it down.
Solution: 2.8

Problem: Find IC50 for O=C(NCc1cccc(-c2ccccc2)c1)[C@@H]1CCCN1S(=O)(=O)c1cc2cc(F)ccc2o1 [Example 77] on human TRPA1 (Homo sapiens (Human), UniProt O75762) and write it down.
Solution: 15

[A] CN(C(=O)OC(C)(C)C)c1ccc(-c2ccc(F)c(CNC(=O)C3CCCN3S(=O)(=O)c3cc4ccccc4o3)c2)cn1 (centres unmarked) [Example 175]
[B] O=C(NCc1cncc(-c2ccc(OC(F)(F)F)cc2)c1)[C@@H]1CCCN1S(=O)(=O)c1cc2cc(F)ccc2o1 [Example 279]
[C] CN(C)C(=O)c1ccc(CNC(=O)[C@@H]2CCCN2S(=O)(=O)c2cc3ccccc3o2)cc1-c1ccc(C(F)(F)F)cc1 [Example 337]
Problem: Write the entries in order, lowest recorded IC50 first. Order the labels as requested and list them.
Solution: B, A, C

----------
TARGET OR TEST SYSTEM: human TRPA1 (Homo sapiens (Human), UniProt O75762)
ASSAY OVERVIEW: Measurement of TRPA1 antagonist activity (1): intracellular calcium increase
Assay type: cell-based
PARTICULARS: 293T cells transfected with human TRPA1 expression plasmid; allylisothiocyanate 20 μM stimulation; intracellular calcium fluorescence; read-out: hTRPA1 IC50
OUTCOME MEASURE: IC50 (nM)

[1] O=C(NCc1ccc(O)c(-c2ccc(C(F)(F)F)cn2)c1)[C@@H]1CCCN1S(=O)(=O)c1cc2ccccc2o1
[2] O=C(NCc1cc(-c2ccc(C(F)(F)F)cn2)ccn1)[C@@H]1[C@@H](O)CCN1S(=O)(=O)c1cc2cc(F)ccc2o1
[3] C[C@H](NS(=O)(=O)c1cc2cc(F)ccc2o1)C(=O)NCc1cncc(-c2ccc(C(F)(F)F)cn2)c1
Problem: Rank the 3 molecules shown above by IC50, smallest number first. Order the labels as requested and list them.
Solution: 1, 2, 3

----------
TARGET OR TEST SYSTEM: human TRPA1 (Homo sapiens (Human), UniProt O75762)
ASSAY OVERVIEW: Measurement of TRPA1 antagonist activity (1): intracellular calcium increase
Format: cell-based
PARTICULARS: 293T cells transfected with human TRPA1 expression plasmid; allylisothiocyanate 20 μM stimulation; intracellular calcium fluorescence; read-out: hTRPA1 IC50
OUTCOME MEASURE: IC50 (nM)

Examples with their reported IC50 follow.
Problem: Indicate the recorded IC50 value for this compound: O=C(NCc1cccc(OCc2cncc(Cl)c2)c1)[C@@H]1CCCN1S(=O)(=O)c1cc2ccccc2o1
Solution: 10

Problem: Indicate the recorded IC50 value for this compound: O=C(NCc1cc(-c2ccc(C(F)(F)F)cn2)ccn1)[C@@H]1CCCN1S(=O)(=O)c1cc2cnccc2o1
Solution: 12

Problem: Indicate the recorded IC50 value for this compound: O=C(NCc1cccc(-c2ncc(C(F)(F)F)cn2)c1)[C@@H]1CCCN1S(=O)(=O)c1cc2ccccc2o1
Solution: 10

Problem: Indicate the recorded IC50 value for this compound: O=C(NCc1cccc(OCc2ccnc(C(F)(F)F)c2)c1)[C@@H]1CCCN1S(=O)(=O)c1cc2cnccc2o1
Solution: 9.8

Problem: Indicate the recorded IC50 value for this compound: O=C(NCc1cccc(OCc2ccsc2)c1)[C@@H]1CCCN1S(=O)(=O)c1cc2ccccc2o1
Solution: 7.5

Problem: Indicate the recorded IC50 value for this compound: O=C(NCc1ccc(F)c(OC(F)(F)F)c1)[C@@H]1CCCN1S(=O)(=O)c1cc2cc(F)ccc2o1
Solution: 11

[A] O=C(NCc1cnnc(-c2ccc(C(F)(F)F)cc2)c1)[C@@H]1CCCN1S(=O)(=O)c1cc2ccccc2o1
[B] O=C(NCc1cncc(-c2ccc(C(F)(F)F)cc2)c1)[C@@H]1CCCN1S(=O)(=O)c1cc2cc(F)ccc2o1
Problem: Please state the entry with greater IC50 among A and B . Answer = label.
Solution: A
